experiment: Evaluation of stability in liver microsome; details: mouse liver microsome, 1 μM, 37° C. for 30 minutes
quantity-kind: Remaining (%)

Here is how some molecules turned out for Remaining (%).
>>> observed_value("COCc1ccc(NC(=O)c2c(C#Cc3cnc4cccnn34)n(C3(C)CC3)c3ncnc(N)c23)cc1")
65
>>> observed_value("COCc1ccc(NC(=O)c2c(-c3cccnc3)n(C3(C)CC3)c3ncnc(N)c23)cc1")
81
>>> observed_value("COCc1ccc(NC(=O)c2c(C#Cc3c(C)noc3C)n(C3(C)CC3)c3ncnc(N)c23)cc1")
58
>>> observed_value("COCc1ccc(NC(=O)c2c(C)n(C(C)(C)C)c3ncnc(N)c23)cc1")
81
>>> observed_value("COCc1ccc(NC(=O)c2c(Cl)n(C3(C)CC3)c3ncnc(N)c23)cc1")
62

[1] COCc1ccc(NC(=O)c2cn(C(C)(C)C)c3ncnc(N)c23)cc1F
[2] COCc1ccc(NC(=O)c2c(-c3cn[nH]c3)n(C3(C)CC3)c3ncnc(N)c23)cc1
Between 1 and 2 , which one shows the larger Remaining (%) value? Give the label under which the chosen entry appears.
2

----------
test: Evaluation of stability in liver microsome; details: mouse liver microsome, 1 μM, 37° C. for 30 minutes
quantity-kind: Remaining (%)

>>> observed_value("COCc1ccc(NC(=O)c2c(C#Cc3ccn(C)n3)n(C3(C)CC3)c3ncnc(N)c23)cc1")
67
>>> observed_value("COCc1ccc(NC(=O)c2c(C#CCC3(O)CCC3)n(C3(C)CC3)c3ncnc(N)c23)cc1")
60
>>> observed_value("COCc1ccc(NC(=O)c2c(C#CCC(C)(C)O)n(C3(C)CC3)c3ncnc(N)c23)cc1")
66
>>> observed_value("COCc1ccc(NC(=O)c2c(OCC3CCCO3)n(C3(C)CC3)c3ncnc(N)c23)cc1 (centres unmarked)")
67

[1] COCc1ccc(NC(=O)c2c(C(C)=O)n(C3(C)CC3)c3ncnc(N)c23)cc1
[2] COCc1ccc(NC(=O)c2c(Br)n(C3(C)CC3)c3ncnc(N)c23)cc1
Select the item whose Remaining (%) value is smaller, choosing between 1 and 2 . Give the label under which the chosen entry appears.
2
(2: 56%, 1: 89%)

[a] COCc1ccc(NC(=O)c2c(-c3ccc(CO)nc3)n(C3(C)CC3)c3ncnc(N)c23)cc1
[b] COCc1ccc(NC(=O)c2c(C#Cc3cncn3C)n(C3(C)CC3)c3ncnc(N)c23)cc1
Between a and b , which one shows the larger Remaining (%) value? Give the label under which the chosen entry appears.
a
(a: 85%, b: 53%)

[a] COCc1ccc(NC(=O)c2c(C#Cc3ccn[nH]3)n(C3(C)CC3)c3ncnc(N)c23)cc1
[b] COCc1ccc(NC(=O)c2c(-c3cnn(C)c3)n(C3(C)CC3)c3ncnc(N)c23)cc1
Between a and b , which one shows the larger Remaining (%) value? Give the label under which the chosen entry appears.
b

[1] COCc1ccc(NC(=O)c2c(C#CC3(O)CCCC3)n(C3(C)CC3)c3ncnc(N)c23)cc1
[2] COCc1ccc(NC(=O)c2c(C#Cc3cnn(C(C)C)c3)n(C3(C)CC3)c3ncnc(N)c23)cc1
Between 1 and 2 , which one shows the larger Remaining (%) value? Give the label under which the chosen entry appears.
2
(2: 79%, 1: 55%)

----------
experiment: Evaluation of stability in liver microsome; conditions: mouse liver microsome, 1 μM, 37° C. for 30 minutes
quantity-kind: Remaining (%)

>>> observed_value("COCc1ccc(NC(=O)c2c(C#Cc3ccsc3)n(C3(C)CC3)c3ncnc(N)c23)cc1")
70
>>> observed_value("COCc1ccc(NC(=O)c2c(C#Cc3cncnc3)n(C3(C)CC3)c3ncnc(N)c23)cc1")
53
>>> observed_value("COCc1ccc(NC(=O)c2c(C#CCC(C)O)n(C3(C)CC3)c3ncnc(N)c23)cc1 (centres unmarked)")
68
>>> observed_value("COCc1ccc(NC(=O)c2c(C#Cc3cnn(C)c3)n(C3(C)CC3)c3ncnc(N)c23)cc1")
67
>>> observed_value("COCc1ccc(NC(=O)c2c(C#Cc3cncs3)n(C3(C)CC3)c3ncnc(N)c23)cc1")
51
>>> observed_value("CCc1c(C(=O)Nc2ccc(COC)cc2)c2c(N)ncnc2n1C1(C)CC1")
72
>>> observed_value("COCc1ccc(NC(=O)c2c(OCC3CCOCC3)n(C3(C)CC3)c3ncnc(N)c23)cc1")
68
>>> observed_value("COCc1ccc(NC(=O)c2c(C#CC(C)(C)O)n(C3(C)CC3)c3ncnc(N)c23)cc1")
72
>>> observed_value("C=C(C)c1c(C(=O)Nc2ccc(COC)cc2)c2c(N)ncnc2n1C1(C)CC1")
62
>>> observed_value("COCc1ccc(NC(=O)c2c(C#CC3(O)CCOCC3)n(C3(C)CC3)c3ncnc(N)c23)cc1")
80
>>> observed_value("COCc1ccc(NC(=O)c2cn(C3(C)CC3)c3ncnc(N)c23)cc1F")
58
>>> observed_value("COCc1ccc(NC(=O)c2c(C#CCC3NC(=O)NC3=O)n(C3(C)CC3)c3ncnc(N)c23)cc1 (centres unmarked)")
67
>>> observed_value("COCc1ccc(NC(=O)c2cn(C(C)(C)C)c3ncnc(N)c23)cc1")
64
>>> observed_value("COCc1ccc(NC(=O)c2c(C#CCN(C)C)n(C3(C)CC3)c3ncnc(N)c23)cc1")
57
>>> observed_value("COCc1ccc(NC(=O)c2c(C#Cc3ccccc3)n(C3(C)CC3)c3ncnc(N)c23)cc1")
76
>>> observed_value("CCn1nccc1C#Cc1c(C(=O)Nc2ccc(COC)cc2)c2c(N)ncnc2n1C1(C)CC1")
55
>>> observed_value("COCc1ccc(NC(=O)c2c(-c3ccccc3)n(C3(C)CC3)c3ncnc(N)c23)cc1")
50
>>> observed_value("COCc1ccc(NC(=O)c2c(C#Cc3cccc(NCc4ccncc4)c3)n(C3(C)CC3)c3ncnc(N)c23)cc1")
62
>>> observed_value("COCc1ccc(NC(=O)c2c(C#CCN3CCCC3)n(C3(C)CC3)c3ncnc(N)c23)cc1")
59
>>> observed_value("COCc1ccc(NC(=O)c2c(OC[C@H]3CCCO3)n(C3(C)CC3)c3ncnc(N)c23)cc1")
69
>>> observed_value("COCc1ccc(NC(=O)c2c(OCC(C)(C)OC)n(C3(C)CC3)c3ncnc(N)c23)cc1")
53
>>> observed_value("COCc1ccc(NC(=O)c2c(/C=C/CO)n(C3(C)CC3)c3ncnc(N)c23)cc1")
68
>>> observed_value("COCc1ccc(NC(=O)c2c(C#Cc3cccs3)n(C3(C)CC3)c3ncnc(N)c23)cc1")
70
>>> observed_value("COCc1ccc(NC(=O)c2c(C#Cc3cccc(F)c3)n(C3(C)CC3)c3ncnc(N)c23)cc1")
84
>>> observed_value("COCc1ccc(NC(=O)c2c(C#CCN3CCCCC3)n(C3(C)CC3)c3ncnc(N)c23)cc1")
52
>>> observed_value("COCc1ccc(NC(=O)c2c(F)n(C3(C)CC3)c3ncnc(N)c23)cc1")
69
>>> observed_value("COCc1ccc(NC(=O)c2c(C#CC3CCOCC3)n(C3(C)CC3)c3ncnc(N)c23)cc1F")
58
>>> observed_value("COCc1ccc(NC(=O)c2c(C#Cc3cnc4ccoc4c3)n(C3(C)CC3)c3ncnc(N)c23)cc1")
78
>>> observed_value("COCCN(C)CC#Cc1c(C(=O)Nc2ccc(COC)cc2)c2c(N)ncnc2n1C1(C)CC1")
52
>>> observed_value("COCc1ccc(NC(=O)c2c(C#Cc3cncc(C#N)c3)n(C3(C)CC3)c3ncnc(N)c23)cc1")
70
>>> observed_value("COCc1ccc(NC(=O)c2c(-c3ccc(F)nc3)n(C3(C)CC3)c3ncnc(N)c23)cc1")
58
>>> observed_value("COCc1ccc(NC(=O)c2c(OCC3CCOC3)n(C3(C)CC3)c3ncnc(N)c23)cc1 (centres unmarked)")
68

----------
experiment: Evaluation of stability in liver microsome; conditions: mouse liver microsome, 1 μM, 37° C. for 30 minutes
quantity-kind: Remaining (%)

>>> observed_value("COCc1ccc(NC(=O)c2c(OC[C@@H]3CCCO3)n(C3(C)CC3)c3ncnc(N)c23)cc1")
70
>>> observed_value("COCc1ccc(NC(=O)c2c(C#Cc3ccc(OC)cc3)n(C3(C)CC3)c3ncnc(N)c23)cc1")
90
>>> observed_value("COCc1ccc(NC(=O)c2c(C#Cc3cnc4[nH]ccc4c3)n(C3(C)CC3)c3ncnc(N)c23)cc1")
82
>>> observed_value("COCc1ccc(NC(=O)c2c(C#CCC3(O)COC3)n(C3(C)CC3)c3ncnc(N)c23)cc1")
74
>>> observed_value("COCc1ccc(NC(=O)c2c(-c3ccc(CO)cc3)n(C3(C)CC3)c3ncnc(N)c23)cc1")
72
>>> observed_value("COCc1ccc(NC(=O)c2c(SC)n(C3(C)CC3)c3ncnc(N)c23)cc1")
70
>>> observed_value("COCc1ccc(NC(=O)c2c(OCC3CCCCO3)n(C3(C)CC3)c3ncnc(N)c23)cc1 (stereo not shown)")
60
>>> observed_value("COCc1ccc(NC(=O)c2cn(C3(C4CC4)CC3)c3ncnc(N)c23)cc1")
67
>>> observed_value("COCc1ccc(NC(=O)c2c(C#CC3CCN(C)CC3)n(C3(C)CC3)c3ncnc(N)c23)cc1")
77
>>> observed_value("COCc1ccc(NC(=O)c2c(C#Cc3ccc(OC)nc3)n(C3(C)CC3)c3ncnc(N)c23)cc1")
79
>>> observed_value("COCc1ccc(NC(=O)c2c(C#CC3CCOCC3)n(C3(C)CC3)c3ncnc(N)c23)cc1")
63
>>> observed_value("COCc1ccc(NC(=O)c2c(OC[C@@H](C)OC)n(C3(C)CC3)c3ncnc(N)c23)cc1")
71
>>> observed_value("COCc1ccc(NC(=O)c2cn(C(C)(C)CF)c3ncnc(N)c23)cc1F")
56
>>> observed_value("COCc1ccc(NC(=O)c2c(C#Cc3ccc(N)nc3)n(C3(C)CC3)c3ncnc(N)c23)cc1")
64
>>> observed_value("COCc1ccc(NC(=O)c2c(OCC(C)OC)n(C3(C)CC3)c3ncnc(N)c23)cc1 (stereo not shown)")
76
>>> observed_value("COCc1ccc(NC(=O)c2c(-c3cncnc3)n(C3(C)CC3)c3ncnc(N)c23)cc1")
67
